B1: POMT2 (parent)
chain: VLRSRIRFIHLVTGCVLGSSGKVL

# Variants of: B1
# PROTOCOL DETAILS: protein stability index of a GFP-peptide fusion (GPS, HEK-293T) (PSI 1-6); higher = more stable;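 also: lentivirally expressed fusions sorted by FACS into six bins by GFP to DsRed ratio, PSI derived from sequencing read proportions per bin multiplied by bin number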
# MEASUREMENT CONTEXT: c terminus: a fixed tail appended
Would you please tag the item y when its protein stability index is 3 or above, and n when it is below?

record_sequence="VLPSRIRFIHLVTGCVLGSSGKVL [R3P]" label=y
record_sequence="VLRSRIRFIHGVTGCVLGSSGKVL [L11G]" label=n
record_sequence="VLRSRIRFIHLVTGAVLGSSGKVL [C15A]" label=y
record_sequence="VLASRIRFIHLVTGCVLGSSGKVL [R3A]" label=n
record_sequence="VLRSRIRFIHLVTGCVLGSSGKVN [L24N]" label=n
record_sequence="VLRSRIRFYHLVTGCVLGSSGKVL [I9Y]" label=y
record_sequence="VLRSRIRFIHLVTNCVLGSSGKVL [G14N]" label=n
record_sequence="VLRSWIRFIHLVTGCVLGSSGKVL [R5W]" label=n
record_sequence="VLRFRIRFIHLVTGCVLGSSGKVL [S4F]" label=n
record_sequence="VLRSRIREIHLVTGCVLGSSGKVL [F8E]" label=n
record_sequence="VLRSRIRFIHLVTGCVLGSSVKVL [G21V]" label=n
record_sequence="VLRSRIRFIHLVTGCVLGSSGKVW [L24W]" label=y
record_sequence="VLRSRIRFIHLVTGCVLGSIGKVL [S20I]" label=n
record_sequence="VLRSRIRFIHLWTGCVLGSSGKVL [V12W]" label=n
record_sequence="VLRSRIRFIHLVTGCVLGSSGCVL [K22C]" label=n
record_sequence="VLRSRIHFIHLVTGCVLGSSGKVL [R7H]" label=y
record_sequence="VQRSRIRFIHLVTGCVLGSSGKVL [L2Q]" label=y
record_sequence="VLRSRIRFIHLVTGCVLGSYGKVL [S20Y]" label=n
record_sequence="VLRDRIRFIHLVTGCVLGSSGKVL [S4D]" label=n
record_sequence="VLRSRIRFIHLVTGCQLGSSGKVL [V16Q]" label=n
record_sequence="VLRSRIRFIHLVTGCVLGSSGLVL [K22L]" label=n
record_sequence="VMRSRIRFIHLVTGCVLGSSGKVL [L2M]" label=n
record_sequence="VLRSRIDFIHLVTGCVLGSSGKVL [R7D]" label=n
record_sequence="VLRSRIRFEHLVTGCVLGSSGKVL [I9E]" label=n
record_sequence="VLRSRIRFIHLVTGCVLGSSMKVL [G21M]" label=y
record_sequence="VLRSRIYFIHLVTGCVLGSSGKVL [R7Y]" label=n
record_sequence="VLRSRIRFIHLVTGCVLGSSGKKL [V23K]" label=n
record_sequence="VLRSRIRFIHLKTGCVLGSSGKVL [V12K]" label=y
record_sequence="VLRSRIRFIHLVTGCVLMSSGKVL [G18M]" label=n
record_sequence="VSRSRIRFIHLVTGCVLGSSGKVL [L2S]" label=n
record_sequence="ALRSRIRFIHLVTGCVLGSSGKVL [V1A]" label=n
